# test-target: FUS(375-526)[P525L][R/S in 375-422]-NLUC-HA P525L; all Arg to Ser in 375-422
# assay-conditions: cEt at 1-5 and 16-20, DNA at 6-15; full PS; all C 5mC; nanoBRET
quantity: Kd (nM)

>>> print(df.to_string())
                                   seq_text  recorded_result
0  CTGCTAGCCTCTGGATTTGA [766635 (cEt 5-10-5 gapmer)]             14.3

----------
# System: HA-NES-β23-NLUC (artificial)
# assay-conditions: cEt at 1-5 and 16-20, DNA at 6-15; full PS; all C 5mC; nanoBRET; control fusion
quantity: Kd (nM)

>>> df
                                   seq_text  quantity  uom  recorded_result
0  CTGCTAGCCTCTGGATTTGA [766635 (cEt 5-10-5 gapmer)]        Kd   nM              950

----------
# Tested on: HA-NES-β23-NLUC (artificial)
# assay-conditions: 2'-MOE at 1-5 and 16-20, DNA at 6-15; full PS; all C 5mC; nanoBRET; control fusion
quantity: Kd

                                   seq_text  quantity  recorded_result
0  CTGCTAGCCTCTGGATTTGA [766633 (2'-MOE 5-10-5 gapmer)]        Kd        > 1000 nM

----------
# test-target: FUS(375-526)[P525L][R/S in 454-526]-NLUC-HA P525L; all Arg to Ser in 454-526
# assay-conditions: 2'-MOE at 1-5 and 16-20, DNA at 6-15; full PS; all C 5mC; nanoBRET
quantity: Kd (µM)

                                   seq_text  quantity  uom  recorded_result
0  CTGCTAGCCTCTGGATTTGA [766633 (2'-MOE 5-10-5 gapmer)]        Kd   µM            0.282

----------
# test-target: FUS(375-526)[P525L][R/S in 375-422]-NLUC-HA P525L; all Arg to Ser in 375-422
# assay-conditions: 2'-MOE at 1-5 and 16-20, DNA at 6-15; full PS; all C 5mC; nanoBRET
pKd: −log10 of the molar value.
quantity: pKd

>>> print(df.to_string())
                                   seq_text                               test_target  recorded_result
0  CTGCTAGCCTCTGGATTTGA [766633 (2'-MOE 5-10-5 gapmer)]  FUS(375-526)[P525L][R/S in 375-422]-NLUC-HA P525L; all Arg to Ser in 375-422             7.91

----------
# test-target: NanoLuc luciferase control (NLUC-HA) (UniProt Q9GV45)
# assay-conditions: 2'-F at 1-5 and 16-20, DNA at 6-15; full PS; 5mC at C8, C9, C11; nanoBRET; control protein
quantity: Kd

In [3]: df
Out[3]:
                                   seq_text  quantity  recorded_result
0  CUGCUAGCCTCTGGAUUUGA [766637 (2'-F 5-10-5 gapmer)]        Kd        > 1000 nM
